The measurements presented in this section are drawn from ChEMBL document CHEMBL1201862.

- System: SF-295
- methodNotes: NCI tumour cell line growth inhibition, 48 h
The source made the active and inactive calls. No stated cut-off is given here; in the data, active = GI50 up to about 1.1 µM and inactive = higher.
Response enum: active, inactive

QUERY: Hey, what did the test say about CCCCCCCCCCCC1=C(O)C(=O)C(CC2=C(O)C(=O)C(CCCCCCCCCCC)=C(O)C2=O)=C(O)C1=O ?
RESULT: inactive

QUERY: Recorded test outcome, item CC(C)C1=CC23CCC4C(C)(C(=O)O)CCCC4(C)C2CC1C1C(=O)N(c2ccccc2)C(=O)C13 (centres undefined)
RESULT: inactive

QUERY: # lookup: test call for OCCN(CCO)c1ccc2c(-c3ccccc3)cc(N(CCO)CCO)nc2n1
RESULT: inactive

QUERY: Short answer needed: outcome of this test for COC(=O)CCC12CCC(=O)C1[C@@H](C(=O)OC)C[C@H]2C(=O)OC (some centres undefined) ?
RESULT: inactive

QUERY: Identify the outcome logged in this assay for the molecule shown: COC1=CC(=O)C2=C(C[C@@]3(C)C(=C2)C(CO)=CC[C@H]3O)C1=O
RESULT: inactive

QUERY: // outcome(item) with item = CC1(C)CCC[C@@]2(C)C1C[C@H](O)[C@@]1(C)O[C@@](C)([C@H](O)CO)CCC21 (some centres undefined)
RESULT: inactive

QUERY: Per the assay record, what outcome was assigned to CCOc1ccc2c(ccc(/C=C/c3cc(C)c4cccnc4c3O)[n+]2C)c1 ?
RESULT: inactive

QUERY: Which outcome was entered for the molecule COc1ccc(-c2cc(=O)c3c(O)cc(O)cc3o2)cc1OC in this test?
RESULT: inactive

QUERY: For O=C(C[C@@H]1NCCC[C@H]1O)Cn1cnc2cc(Br)c(Cl)cc2c1=O , which call appears in the assay record?
RESULT: active

###

- System: SNB-78
- methodNotes: NCI tumour cell line growth inhibition, 48 h
Calls of active or inactive are those of the source. No stated cut-off is given here; in the data, active = GI50 up to about 1.1 µM and inactive = higher.
Output constraint: value belongs to t for active, f for inactive

QUERY: Please state the recorded outcome for this compound: CCn1cc(C(=O)O)c(=O)c2cc(F)c(N3CCNCC3)nc21
RESULT: f

QUERY: Status in this test for COC(=O)NN=C1C(C)(C)C(=NNC(=O)OC)C1(C)C ?
RESULT: f

QUERY: Dear all, I need the recorded test outcome for O=C(O)C1(C(=O)O)CC1 , thank you.
RESULT: f

QUERY: Returns: the outcome recorded for CC1=C2C(=CC(C)(C)C2O)C(=O)C(C)(O)C12CC2 (stereo unspecified) in this assay.
RESULT: t

QUERY: Can you look up the reported call for O=[N+]([O-])c1cc(C2SCc3nc4ccccc4n32)ccc1Cl (stereo unspecified) for me?
RESULT: f

QUERY: Recorded call for N#CC(C#N)=C(C(C#N)C#N)C(C#N)C#N ?
RESULT: f

###

- Test system: HCT-15
endpointLabel: GI50

GI50 for O=C1CCCCN1 is > 1120 µM

Reported GI50 for C/C1=C\CC[C@@]2(C)O[C@@H]2C[C@@H]2[C@H](C/C(C)=C/CC1)OC(=O)[C@]21CO1 was > 100 µM

O=C1N(c2ccccc2)C2(O)C(=O)c3ccccc3C2(O)N1c1ccccc1 (stereo unspecified) yielded GI50 of > 100 µM

Reported GI50 ( COCN1C(=O)[C@@H]2CCCN2C(=O)c2ccc(Cl)cc21 ) = > 100 µM

GI50 reading for O=C1CSC(C(/N=N/c2ccc(Cl)cc2)c2nc3ccccc3[nH]2)=N1 (stereo unspecified) : > 100 µM

// recorded GI50 for O=C(CCc1ccc(O)cc1)NCCCNC(=O)CCc1ccc(O)cc1 : > 100 µM

###

- Test system: MDA-MB-231
- methodNotes: NCI tumour cell line growth inhibition, 48 h
Activity calls are given as the source filed them. No stated cut-off is given here; in the data, active = GI50 up to about 1.1 µM and inactive = higher.
Classes to choose from: class 1 for active, class 0 for inactive

QUERY: Assay result, entry CN(C)CCNc1ncnc2nc(-c3ccccc3)c(-c3ccccc3)nc12 — outcome?
RESULT: class 0

QUERY: Which outcome was assigned to NCCNS(=O)(=O)c1ccc(N)cc1 in this test?
RESULT: class 0

QUERY: Hi, sorry to bother you, what did the test record for Cc1csc(NNC(=O)Nc2ccccc2)n1 ?
RESULT: class 0

QUERY: Per the records of this test, what outcome belongs to O=C(CCc1ccc(O)cc1)NCCCNC(=O)CCc1ccc(O)cc1 ?
RESULT: class 0

QUERY: Hey, what did the test say about CCOC(=O)C(NC(=O)c1ccccc1)(Nc1ccc(S(=O)(=O)Nc2ccc(OC)nn2)cc1)C(F)(F)F (stereo not given) ?
RESULT: class 0

QUERY: Would you mind telling me which call this test gave Cc1ccc(S(=O)(=O)n2cc(C#N)c(C#N)c2)cc1 ?
RESULT: class 0

QUERY: What classification did C[C@@H]1C[C@@]2(O[C@@H]2C)C(=O)O[C@@H]2CCN3CC=C(COC(=O)[C@]1(C)O)[C@H]23 end up with in this test?
RESULT: class 0

QUERY: Hi team, can someone confirm the assay call for COC(=O)c1c(C(=O)OC)c(C(c2ccccc2)c2ccccc2)n(-c2ccccc2)c1Cl ?
RESULT: class 0

QUERY: Could you kindly confirm the outcome this assay logged for O=[N+]([O-])c1ccc2c(c1)c(S(=O)(=O)O)cc1nonc12 ?
RESULT: class 0

QUERY: Name the outcome recorded for COc1ccc2c(c1)[C@@H](NC(C)=O)CCc1cc(OC)c(OC)c(OC)c1-2 in the assay.
RESULT: class 1

###

I'd appreciate it if you could supply GI50 values for the items below.
- System: EKVX
- methodNotes: NCI tumour cell line growth inhibition, 48 h
Activity calls are given as the source filed them. Rule as the data show it: active = GI50 up to about 1.1 µM and inactive = higher.

Measured GI50, O=c1[nH]c(=O)n(C2CC(O)C(CO)O2)cc1C#Cc1cc(C(F)(F)F)cc(C(F)(F)F)c1 (configuration not stated) : 40.3 µM (inactive)

For record CN(C)c1ccc(C(C#N)N2CCCN(C(C#N)c3ccc(N(C)C)cc3)C2c2ccc(N(C)C)cc2)cc1 (configuration not stated) the listed GI50 is > 100 µM (inactive)

In plain terms, Cc1ccc(C(=O)/C=C2/Nc3ccc([N+](=O)[O-])cc3N/C2=C/C(=O)c2ccc(C)cc2)cc1 has a documented GI50 of 61.4 µM (inactive)

For record CO/C(N)=C(C#N)/N=C/c1ccc2ccccc2c1 the listed GI50 is 64.3 µM (inactive)

Field GI50 (entry O=C1CC(c2ccccc2)n2cccc21 (configuration not stated) ) reads > 100 µM (inactive)

Looking up CCOC(=O)NN(C(=O)OCC)C(C(=O)c1ccccc1)N(NC(=O)OCC)C(=O)OCC , I see its GI50 listed as > 100 µM (inactive)

Summary for this molecule, Cc1ccc2nc(NC(=O)C(=O)C3C(=O)NC(=S)NC3=O)sc2c1 : GI50 is > 100 µM (inactive)

Entry CC12CC(C#N)(C#N)C(C#N)(CO1)C(=N)O2 (configuration not stated) — recorded GI50 = > 100 µM (inactive)

Note to self: GI50 recorded for O=[N+]([O-])c1cc(C2SCc3nc4ccccc4n32)ccc1Cl (configuration not stated) was 31.4 µM (inactive)

Notebook: O=C1Nc2ccccc2/C1=N/Nc1nc(-c2cccc([N+](=O)[O-])c2)cs1 , GI50 read as 22.5 µM (inactive)

get_value(item= C/C(=N\NC(N)=S)c1nc2cccnc2[nH]1 , readout=GI50) returns 50 µM (inactive)

Measured GI50 of COC(=O)c1ccc(Oc2nc3ccc(C(F)(F)F)cc3nc2-c2ccccc2)cc1 : 55.5 µM (inactive)

# molecule N#CC(C#N)=C(C(C#N)C#N)C(C#N)C#N ; its GI50 = > 100 µM (inactive)

Notebook: CC(C)(C)CC(C)(C)N/C(N)=N/O , GI50 read as > 89.5 µM (inactive)

Looking up N#Cc1cc(C#N)c(Cl)nc1N , I see its GI50 listed as > 10 µM (inactive)

Recorded GI50 (molecule O=C1Nc2cccc(Cl)c2/C1=C\c1c(-c2ccccc2)nc2n1CCS2 ): 26.1 µM (inactive)

The reported GI50 of the molecule CC(C)(C)OC(=O)NC1CCCCC1NC(=O)C(=O)NC1CCCCC1NC(=O)OC(C)(C)C (configuration not stated) was > 100 µM (inactive)

Value of GI50 reported for the molecule Cc1ccc(S(=O)(=O)n2cc(C#N)c(C#N)c2)cc1 is 30.2 µM (inactive)

Form: molecule = O=C(C[C@@H]1NCCC[C@H]1O)Cn1cnc2cc(Br)c(Cl)cc2c1=O ; GI50 = 0.0244 µM (active)

Item: C/C(=N\NC(=S)N(C)C)c1ncc[nH]1 | GI50: 4.51 µM (inactive)

CN(C)CC1CCC/C(=C\c2ccc(OC(=O)/C=C/c3ccc(Cl)c(Cl)c3)cc2)C1=O (configuration not stated) has a reported GI50 of 5.9 µM (inactive)

The recorded GI50 for entry O=C(CSc1nc2ccccc2c(=O)n1-c1ccccc1)N/N=C1\C(=O)Nc2ccc(F)cc21 equals 2.43 µM (inactive)
